# experimental.target: T1, hu-IL-36γ (human, UniProt Q9NZH8 18-169)
# T1 sequence: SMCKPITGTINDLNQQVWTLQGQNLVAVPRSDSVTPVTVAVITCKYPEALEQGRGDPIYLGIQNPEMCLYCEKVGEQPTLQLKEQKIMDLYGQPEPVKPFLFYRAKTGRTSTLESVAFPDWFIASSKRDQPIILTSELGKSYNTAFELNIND
# measurement.protocol: cell-based or functional assay
Assign MET whenever % Inhibition, HEK Blue SEAP reporter assay does not fall below 60%; assign NOT MET whenever it does.

Is it the case that mAb3.0 Fab (Fab, V domains shown) VH: QLQLQESGPGLVKPSETLSLTCTVSGGSISSTSYYWGWIRQPPGKGLEWIGSIHYSGNTYYNPSLKSRVTISVDTSKNQFSLKLSSVTAADTAVYYCARVHYGGYIPRRFDHWGQGTLVTVSS VL: QSVLTQPPSVSGAPGQRVTISCTGSSSNIGAGYDVHWYQQLPGTAPKLLIYGNTNRPSGVPDRFSGSKSGTSASLAITGLQAEDEADYYCQSYDYSLRGYVFGGGTKLTVL has % Inhibition, HEK Blue SEAP reporter assay reaching or exceeding 60%?
MET

Is it the case that mAb4.0 Fab (Fab, V domains shown) VH: QLQLQESGPGLVKPSETLSLTCTVSGGSIGSRSYYWGWIRQPPGKGLEWIGSIHYSGTTYYNPSLKSRVTISVDTSKNQFSLKLSSVTAADTAVYYCARVAPSYPRVFDYWGQGTLVTVSS VL: QSVLTQPPSVSGAPGQRVTISCTGSSSNIGAGYDVHWYQQLPGTAPKLLIYGNRNRPSGVPDRFSGSKSGTSASLAITGLQAEDEADYYCQSYDYSLRVYVFGGGTKLTVL has % Inhibition, HEK Blue SEAP reporter assay reaching or exceeding 60%?
NOT MET

Is it the case that mAb2.0 Fab (Fab, V domains shown) VH: QLQLQESGPGLVKPSETLSLTCTVSGGSISTSSYYWGWIRQPPGKGLEWIGSIYYTGNTYYNPSLKSRVTISVDTSKNQFSLKLSSVTAADTAVYYCARVRYGVGVPRYFDPWGQGTLVTVSS VL: QSVLTQPPSVSGAPGQRVTISCTGSSSNIGAHYDVHWYQQLPGTAPKLLIYGNDNRPSGVPDRFSGSKSGTSASLAITGLQAEDEADYYCQSYDYSLSGYVFGGGTKLTVL has % Inhibition, HEK Blue SEAP reporter assay reaching or exceeding 60%?
MET

Is it the case that mAb1.0 Fab (Fab, V domains shown) VH: QVQLVESGGGVVQPGRSLRLSCAASGFSFSAYAMHWVRQAPGKGLEWVAVISYDGTNEYYADSVKGRFTISRDNSKNTLYLQMNSLRAEDTAVYYCARGIRIFTSYFDSWGQGTLVTVSS VL: QSVLTQPPSVSGAPGQRVTISCTGSSSNIGAHYDVHWYQQLPGTAPKLLIYSNNNRPSGVPDRFSGSKSGTSASLAITGLQAEDEADYYCQSYDYSLRGYVFGGGTKLTVL has % Inhibition, HEK Blue SEAP reporter assay reaching or exceeding 60%?
NOT MET

Is it the case that mAb5.0 Fab (Fab, V domains shown) VH: EVQLLESGGGLVQPGGSLRLSCAASGFTFSTYAMSWVRQAPGKGLEWVSGISGGSGYTYYADSVKGRFTISRDNSKNTLYLQMNSLRAEDTAVYYCARVVTYRDPPASFDYWGQGTLVTVSS VL: QSVLTQPPSVSGAPGQRVTISCTGSSSNIGAHYDVHWYQQLPGTAPKLLIYGNDNRPSGVPDRFSGSKSGTSASLAITGLQAEDEADYYCQSYDYSLKAYVFGGGTKLTVL has % Inhibition, HEK Blue SEAP reporter assay reaching or exceeding 60%?
MET
